biological target: Solute carrier organic anion transporter family member 1C1 (Homo sapiens); assay: TP_TRANSPORTER: uptake in OATP-F-expressing CHO cells; type: functional, cell-based; conditions: hamster
Residues, ends and D or L forms follow the SMILES beside them.
parameter: Activity

- compound: "CC(C)C[C@@H]1NC(=O)[C@@H](C(C)C)NC(=O)[C@@H]2CCCN2C(=O)[C@@H](CC(=O)O)NC(=O)[C@@H](Cc2c[nH]c3ccccc23)NC1=O [BQ-123] (HELM PEPTIDE1{L.[dW].[dD].P.[dV]}$PEPTIDE1,PEPTIDE1,1:R1-5:R2$$$V2.0)"
  test target: "Solute carrier organic anion transporter family member 1C1 (Homo sapiens)"
  reported: "is not a substrate [-]"
- compound: "CCCCC[C@H](O)/C=C/[C@H]1[C@H](O)CC(=O)[C@@H]1C/C=C\\CCCC(=O)O"
  test target: "Solute carrier organic anion transporter family member 1C1 (Homo sapiens)"
  reported: "is not a substrate [-]"

###

biological target: Solute carrier organic anion transporter family member 1C1 (Homo sapiens, UniProt Q9NYB5); assay: TP_TRANSPORTER: uptake in OATP-F-expressing CHO cells; format: functional, cell-based; conditions: hamster
Sequence (Q9NYB5 whole entry): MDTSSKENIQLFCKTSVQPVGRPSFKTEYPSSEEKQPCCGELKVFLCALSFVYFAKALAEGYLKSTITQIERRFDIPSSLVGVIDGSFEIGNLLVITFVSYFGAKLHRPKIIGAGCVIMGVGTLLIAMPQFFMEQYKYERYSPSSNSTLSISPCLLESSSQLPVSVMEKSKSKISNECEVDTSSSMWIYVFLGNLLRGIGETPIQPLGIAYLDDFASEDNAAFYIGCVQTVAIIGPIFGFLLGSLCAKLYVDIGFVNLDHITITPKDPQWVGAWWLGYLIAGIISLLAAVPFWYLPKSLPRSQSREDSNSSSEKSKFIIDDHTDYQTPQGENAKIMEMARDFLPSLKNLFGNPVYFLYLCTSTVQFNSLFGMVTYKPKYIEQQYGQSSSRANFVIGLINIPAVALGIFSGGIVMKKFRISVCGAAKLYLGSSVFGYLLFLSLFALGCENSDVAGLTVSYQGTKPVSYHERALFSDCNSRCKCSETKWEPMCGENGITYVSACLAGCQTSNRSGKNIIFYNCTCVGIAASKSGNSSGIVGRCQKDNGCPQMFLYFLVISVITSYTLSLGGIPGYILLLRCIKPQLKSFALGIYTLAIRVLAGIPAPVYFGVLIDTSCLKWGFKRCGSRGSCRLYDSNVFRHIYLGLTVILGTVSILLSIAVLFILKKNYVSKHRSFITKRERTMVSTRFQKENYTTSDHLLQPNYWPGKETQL

- molecule: "C[C@]12CC[C@@H]3c4ccc(OS(=O)(=O)O)cc4CC[C@H]3[C@@H]1CCC2=O"
  Activity: "substrate [+]"
- molecule: "CC(C)[C@H](NC(=O)[C@H](CCC(=O)O)NC(=O)[C@H](Cc1ccccc1)NC(=O)[C@@H](C)NC(=O)[C@@H](N)Cc1ccc(O)cc1)C(=O)N[C@H](C(=O)NCC(N)=O)C(C)C"
  Activity: "is not a substrate [-]"
- molecule: "CC1(C)SSC(C)(C)[C@@H](NC(=O)[C@@H](N)Cc2ccc(O)cc2)C(=O)NCC(=O)N[C@@H](Cc2ccccc2)C(=O)N[C@H]1C(=O)O"
  Activity: "is not a substrate [-]"
- molecule: "C[C@]12CC[C@H](OS(=O)(=O)O)CC1=CC[C@@H]1[C@@H]2CC[C@]2(C)C(=O)CC[C@@H]12"
  Activity: "is not a substrate [-]"
- molecule: "O=C1OC(c2ccc(O)c(S(=O)(=O)[O-])c2)(c2ccc(O)c(S(=O)(=O)[O-])c2)c2c(Br)c(Br)c(Br)c(Br)c21.[Na+].[Na+] [SULFOBROMOPHTHALEIN SODIUM]"
  Activity: "substrate [+]"
